Hello, the source for this data is ChEMBL document CHEMBL5058577, in case you need it.

// values below are reported Population Mitotic Cells (%)
- System: U2OS
- assay-summary: Multiplex assay against U2OS
- Format: toxicity, cell-based
- details: human, 24 h, 1 µM, compound concentration 1 uM, replicate 2
Non-standard residues stand in square brackets, D forms with d. Residues, ends and D or L forms follow the SMILES beside them.
measurement-type: Population Mitotic Cells (%)

- O=C(Nc1cc(-c2ccccc2)nn1-c1ccccc1F)c1ccc([N+](=O)[O-])cc1: 0
- Cc1nn(C)c2nc(NNC(=O)Nc3cc(Cl)nc(Cl)c3)cc(C(C)C)c12: 6
- CCc1nn2c(C)cc(C)nc2c1Cc1ccc(-c2nnc(C3CCNCC3)o2)cc1: 12
- Cc1cc(-c2ccc3c(c2)CC[C@H]3N2CC3(CCN(C(=O)Cc4cn5cc(C)sc5n4)CC3)C2)ncn1 [PF-5190457]: 66
- Cc1cc(NC(=O)NCCN2CCC(O)(Cc3ccccc3)CC2)c2ccccc2n1 [PALOSURAN]: 33
- CCCCCCNC(=O)Nc1ccc(S(=O)(=O)Nc2ccc(CCNC[C@H](O)COc3ccc(O)cc3)cc2)cc1 [L-755507]: 7
- CN(C)C(=O)Cn1cc(-c2ccc(-c3nnc4ccccn34)cc2)cn1: 0
- Cc1cc(O)c(-c2ccc([C@@H](C)CN(C)C)cc2)c2c1[nH]c(=O)c1sccc12: 0
- CN1CCN2c3ccccc3Cc3ccccc3C2C1.Cl (stereo not drawn) [MIANSERIN HYDROCHLORIDE]: 25
- CC(C)C[C@@H]1NC(=O)[C@@H](C(C)C)NC(=O)[C@@H]2CCCN2C(=O)[C@@H](CC(=O)O)NC(=O)[C@@H](Cc2c[nH]c3ccccc23)NC1=O [BQ-123] (cyclo(L[dW][dD]P[dV])): 14
- CSc1nc(NC2CCCC2)c([N+](=O)[O-])c(NC2CCCC2)n1 [GS-39783]: 15
- OCCCNc1cc(-c2ccnc(Nc3cccc(Cl)c3)n2)ccn1: 5
- Nc1nc(-c2ccco2)c2cnn(Cc3ccccc3F)c2n1: 15
- Cc1cc(=O)n(C)c2cc(N3C(=O)CC[C@H](NS(=O)(=O)CC(C)C)[C@H]3c3ccc(Cl)cc3)ccc12: 17
- N[C@](CC1c2ccccc2Oc2ccccc21)(C(=O)O)[C@H]1C[C@@H]1C(=O)O: 36
- O=c1ccc2ccc(OCCCCN3CCN(c4cccc5sccc45)CC3)cc2[nH]1 [BREXPIPRAZOLE]: 33
- Cc1ccc(OCC(O)C(C)NC(C)C)c2c1CCC2.Cl (stereo not drawn): 6
- COc1cc(C(=O)N2CC[C@@H](O)[C@@H](N)C2)cc2nc(-c3cc4ccccc4n3CC3CC3)n(C)c12.Cl: 25
- CCn1c(-c2nc3cc(C(=O)N4CCCC(N)C4)ccc3n2C)cc2ccccc21.Cl (stereo not drawn): 33
- O=C(O)CCC/C=C\CC1C(O)CC(O)C1/C=C/C(O)COc1cccc(Cl)c1 (stereo not drawn) [CLOPROSTENOL]: 25
- Cn1cc(C(=O)OCC2CCN(CCNS(C)(=O)=O)CC2)c2ccccc21: 0
- COc1cc2nc(N3CCN(C(=O)COc4c(OC)cccc4C(C)C)CC3)nc(N)c2cc1OC.Cl.Cl: 20
- CN(C)C/C=C/C(=O)Nc1ccc(C(=O)N2CCCC(Nc3ncc(Cl)c(-c4c[nH]c5ccccc45)n3)C2)cc1 (stereo not drawn): 0
